# study target: factor Xa (Homo sapiens, UniProt P00742)
# Sequence (P00742 235-488 limits assumed): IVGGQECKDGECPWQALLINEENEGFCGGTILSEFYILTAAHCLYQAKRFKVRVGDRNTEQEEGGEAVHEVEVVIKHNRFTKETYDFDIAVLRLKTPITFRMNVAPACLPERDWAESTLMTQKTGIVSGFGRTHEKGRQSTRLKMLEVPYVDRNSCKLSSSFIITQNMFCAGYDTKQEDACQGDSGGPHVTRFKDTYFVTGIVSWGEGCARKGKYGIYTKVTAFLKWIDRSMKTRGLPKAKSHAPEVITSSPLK
# Sequence (P00742 41-179 limits assumed): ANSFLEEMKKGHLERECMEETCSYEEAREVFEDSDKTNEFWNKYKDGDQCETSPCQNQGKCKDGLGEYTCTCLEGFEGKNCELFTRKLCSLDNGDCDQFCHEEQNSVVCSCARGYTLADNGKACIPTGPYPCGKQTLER
// reported IC50 for each item listed

{"structure": "N#CN=C1NCCN1c1ccc(NC(=O)c2cc(C(F)(F)F)nn2-c2cccc(C(N)=O)c2)cc1", "study target": "factor Xa (Homo sapiens, UniProt P00742)", "IC50 / nM": 200}
{"structure": "N=C1CCCN1c1ccc(NC(=O)c2cc(C(F)(F)F)nn2-c2cccc(CN)c2)cc1", "study target": "factor Xa (Homo sapiens, UniProt P00742)", "IC50 / nM": 9.6}

Hey, just so you know, these numbers are from patent US20050203127A1.
